Molecular target: T1, Recombinant TNFα containing an N-terminal 13-aa ybbR tag (human, UniProt P01375 77-233, biotin at the ybbR tag in the ELISA assays)
T1 construct: Expressed in E. coli; Same construct used unlabelled (FA) and biotinylated on NeutrAvidin (ELISA); also called tumor necrosis factor-alpha; human TNFα; not shown: N-terminal 13-aa ybbR tag
T1 sequence (P01375 77-233): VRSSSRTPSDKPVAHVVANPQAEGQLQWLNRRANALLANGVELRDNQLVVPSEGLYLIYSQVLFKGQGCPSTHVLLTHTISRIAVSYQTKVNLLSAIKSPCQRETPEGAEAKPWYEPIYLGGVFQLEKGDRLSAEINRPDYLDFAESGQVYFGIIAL
Assay: FA, FITC-peptide + TNFα titration
Procedure: The FA values were measured on a Molecular Devices Spectramax M5 spectrofluorimeter, with excitation and emission wavelengths at 485 and 525 nm, respectively. […] where Y is the measured anisotropy at a given TNFα concentration x; L is the bicyclic peptide concentration; Qb/Qf is the correction fact for dye-protein interaction; Amax is the maximum anisotropy when all the peptides are bound to TNFα, while $Amin$ is the minimum anisotropy. […]
Positions of bridges follow the written chain, without caps; N, C: chain ends. Non-standard residues stand in square brackets, D forms with d. Primed or numbered codes have the meaning given here. No end group written: not given here. *: point of attachment. FITC = O=C1OC2(c3ccc(O)cc3Oc3cc(O)ccc32)c2ccc(NC(=S)*)cc21; trimesoyl″ = benzene-1,3,5-tricarbonyl scaffold; Nle = CCCC[C@H](N)C(=O)O; Dap = NC[C@H](N)C(=O)O; AEEA = NCCOCCOCC(=O)O
Assay readout: Kd

[Nle]Y[dS]KW[dH]G[dK]H[Dap]K(FITC)-NH2 (linker N-4-10 via trimesoyl″) [C1-35] | 260 nM
[Nle]Y[dS]KW[dH]G[dK]H[Dap]F[AEEA]K(FITC)-NH2 (linker N-4-10 via trimesoyl″, C1-35 core with R11 as printed) [C1-55] | 1000 nM
[Nle]Y[dS]KW[dH]G[dK]H[Dap]I[AEEA]K(FITC)-NH2 (linker N-4-10 via trimesoyl″, C1-35 core with R11 as printed) [C1-57] | 510 nM
[Nle]Y[dS]KW[dH]G[dK]H[Dap][AEEA]K(FITC)-NH2 (linker N-4-10 via trimesoyl″, C1-35 core with R11 as printed) [C1-54] | 5100 nM
[Nle]Y[dS]KW[dH]G[dK]H[Dap]NK(FITC)-NH2 (linker N-4-10 via trimesoyl″, C1-35 core with R11 as printed) [C1-52] | 790 nM

INPUT: Fill in: Kd of [Nle]Y[dS]KW[dH]G[dK]H[Dap]DK(FITC)-NH2 (linker (positions not given here) via trimesoyl″; not fully specified (bridges), C1-35 core with R11 as printed) [C1-51] is ___
OUTPUT: 3500 nM
